Catalogue of molecules with associated viability, T/C
- Tested on: 873145-292-R-J1-PDC complex spheroid viability
- protocolSummary: Anticancer human tumor 873145-292-R-J1-PDC patient-derived renal clear cell carcinoma cell line growth inhibition [POLQ]
- reportedConditions: second compound 0.1 µM; first compound 0.0316 µM; hits give low values
Use % as the unit, but write only the number.

Solved entries:
molecule	measurementType	obsValue
C=CC(=O)N1CCN(c2nc(=O)n(-c3c(C)ccnc3C(C)C)c3nc(-c4c(O)cccc4F)c(F)cc23)C(C)C1 (stereo not given) + Nc1ccc(C#CCN(C(=O)Cc2ncc(C(F)(F)F)cc2C(F)(F)F)c2ccc(F)cc2)nn1	viability, T/C	111
CCc1c2c(nc3ccc(O)cc13)-c1cc3c(c(=O)n1C2)COC(=O)[C@]3(O)CC + Cc1cccc(N(C)C(=O)C2C(O)CCN2c2nc(C)cc(C(F)(F)F)c2C#N)c1	viability, T/C	54.2
O=C(Nc1ccc(O)c(NS(=O)(=O)c2ccc(F)cc2)c1)c1ccc(-c2ccccc2)cc1 + COC1C(OC(N)=O)C(O)C(Oc2ccc3c(O)c(NC(=O)c4ccc(O)c(CC=C(C)C)c4)c(=O)oc3c2C)OC1(C)C	viability, T/C	99.9
CC[C@@]1(O)C(=O)OCc2c1cc1n(c2=O)Cc2cc3c(CN(C)C)c(O)ccc3nc2-1 + Nc1ccc(C#CCN(C(=O)Cc2ncc(C(F)(F)F)cc2C(F)(F)F)c2ccc(F)cc2)nn1	viability, T/C	99.3

Reported viability, T/C of CC1COCCN1c1cc(C2(O)CC3CCC(C2)O3)c2cnn(-c3ccn[nH]3)c2n1 (stereo not given) + Nc1ccc(C#CCN(C(=O)Cc2ncc(C(F)(F)F)cc2C(F)(F)F)c2ccc(F)cc2)nn1 : 111

###

- System: 873145-292-R-J1-PDC complex spheroid viability
- protocolSummary: Anticancer human tumor 873145-292-R-J1-PDC cell line growth inhibition [POLQ];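 note: luminescence signal used as surrogate for viable cell content; spheroids exposed to compounds for 7 days before viability readout; 100% = DMSO vehicle control viability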
- reportedConditions: second compound 3.16 µM; first compound 0.0316 µM; hits give low values
measurementType: viability, T/C (%)
Use % as the unit, but write only the number.

Solved entries:
compound	unitOfMeasure	viability, T/C
CC[C@@]1(O)C(=O)OCc2c1cc1n(c2=O)Cc2cc3c(CN(C)C)c(O)ccc3nc2-1 + Cc1cccc(N(C)C(=O)C2C(O)CCN2c2nc(C)cc(C(F)(F)F)c2C#N)c1	%	78
COc1ccc([C@@H](O)c2cc(-c3ncnc4cc(N5CCOCC5)ccc34)c(F)cc2Cl)nn1 + COC1C(OC(N)=O)C(O)C(Oc2ccc3c(O)c(NC(=O)c4ccc(O)c(CC=C(C)C)c4)c(=O)oc3c2C)OC1(C)C	%	89.1
CCCS(=O)(=O)Nc1ccc(F)c(C(=O)c2c[nH]c3ncc(-c4ccc(Cl)cc4)cc23)c1F + Cc1cccc(N(C)C(=O)C2C(O)CCN2c2nc(C)cc(C(F)(F)F)c2C#N)c1	%	101

Field viability, T/C (873145-292-R-J1-PDC complex spheroid viability), entry CCc1c2c(nc3ccc(O)cc13)-c1cc3c(c(=O)n1C2)COC(=O)[C@]3(O)CC + Cc1cccc(N(C)C(=O)C2C(O)CCN2c2nc(C)cc(C(F)(F)F)c2C#N)c1 : 54.1

Field viability, T/C (873145-292-R-J1-PDC complex spheroid viability), entry Nc1ccn(C2OC(CO)C(O)C2(F)F)c(=O)n1 (stereo not given) + Nc1ccc(C#CCN(C(=O)Cc2ncc(C(F)(F)F)cc2C(F)(F)F)c2ccc(F)cc2)nn1 : 72.9
